- experimental_system: T1, SNTA1, Q13424
- T1 sequence (Q13424 82-180, limits assumed, looked up): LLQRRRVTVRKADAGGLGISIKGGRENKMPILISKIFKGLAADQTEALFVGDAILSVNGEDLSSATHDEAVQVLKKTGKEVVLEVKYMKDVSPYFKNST
- assay_protocol: holdup assay
- Design: key: below the threshold = too weak to quantify, mostly under pKd 3.1 to 4
- test_conditions: plain residues with an end cap or a label only (N-terminal biotin on a linker: ahx)
experimental_readout: pKd

Reference set (4 entries):
binder="QNTDDVQTSF [ACE2, Q9BYF1]" recorded_measurement="below the threshold"
binder="TQKFRASTAL [FRMPD1, Q5SYB0]" recorded_measurement="below the threshold"
binder="APSRKLNTEI [TIAM1, Q13009]" recorded_measurement="below the threshold"
binder="HTHSYIETHV [CNKSR2, Q8WXI2]" recorded_measurement=4.93

List the reported pKd of each binder below.
1. TESNLQTSSC [CGN, Q9P2M7]
2. TEAKLTETNA [MYO18A, Q92614]
3. QPRTWLQSPV [RTKN, Q9BST9]
4. EKQAKGDTEF [CACYBP, Q9HB71]
5. QDEKVKESYV [ABCA1, O95477]

Reply |
1: below the threshold; 2: below the threshold; 3: below the threshold; 4: below the threshold; 5: 5.9
